Sourced from PubChem BioAssay

Biological target: Voltage-gated potassium channel subunit beta-2 (Rattus norvegicus) (UniProt P62483)
Sequence (P62483 whole entry, looked up): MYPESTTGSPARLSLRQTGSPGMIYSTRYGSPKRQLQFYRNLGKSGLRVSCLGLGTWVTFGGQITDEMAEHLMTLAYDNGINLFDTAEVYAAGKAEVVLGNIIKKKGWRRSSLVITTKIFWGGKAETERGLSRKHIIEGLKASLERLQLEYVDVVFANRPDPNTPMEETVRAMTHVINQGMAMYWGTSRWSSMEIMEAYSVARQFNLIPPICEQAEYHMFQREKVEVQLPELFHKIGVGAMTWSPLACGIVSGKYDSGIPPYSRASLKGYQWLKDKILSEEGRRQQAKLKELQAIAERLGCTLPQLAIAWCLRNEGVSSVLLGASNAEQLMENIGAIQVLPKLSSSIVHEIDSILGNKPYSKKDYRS
Experiment: inhibitors of rat Kvbeta2 reductase activity – biochemical, NADPH fluorescence, primary screen (AID 622);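 note: slope of raw intensity against log time taken from 70 to 1610 s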
Conditions: recombinant KvBeta, 4-cyanobenzaldehyde reduction, at 10 µM, active compounds read high
Assign Condition met whenever fluorescence slope does not fall below -0.5; assign Condition not met whenever it does.

Query block: Item Cc1ccc(C(=O)CC2(O)C(=O)N(C)c3ccc(Br)cc32)c(C)c1 (stereo unspecified) with fluorescence slope of -0.5 or above?
Result block: Condition met

Query block: Could you please find out whether `CN(C(=O)c1ccccc1Cl)c1ccccc1` has fluorescence slope that meets -0.5 or exceeds it?
Result block: Condition not met

Query block: In plain terms: is recorded fluorescence slope at least -0.5 for `Cc1nc(N)c(C#N)c(-c2cccnc2)c1C` ?
Result block: Condition met

Query block: Could you please find out whether `COc1cc(C(=O)Nc2cccc(-c3nncn3C)c2)cc(OC)c1OC` has fluorescence slope that meets -0.5 or exceeds it?
Result block: Condition met

Query block: Determine whether this compound has fluorescence slope no lower than -0.5: `CSc1oc(-c2ccccc2)nc1S(=O)(=O)c1ccc(F)cc1`
Result block: Condition met

Query block: # bool: fluorescence slope of `CCOc1ccc(N(CC(=O)Nc2cccc(OC)c2)S(=O)(=O)c2c(C)noc2C)cc1` >= -0.5
Result block: Condition not met
